Every entry's value here was drawn from patent US20250042994A1.

# target_or_test_system: T1, Human CD19-his protein (human, UniProt P15391 20-291)
# T1 construct: bought protein; also called recombinant human CD19-His; CD19 full-length protein; not shown: His tag
# T1 sequence (looked up): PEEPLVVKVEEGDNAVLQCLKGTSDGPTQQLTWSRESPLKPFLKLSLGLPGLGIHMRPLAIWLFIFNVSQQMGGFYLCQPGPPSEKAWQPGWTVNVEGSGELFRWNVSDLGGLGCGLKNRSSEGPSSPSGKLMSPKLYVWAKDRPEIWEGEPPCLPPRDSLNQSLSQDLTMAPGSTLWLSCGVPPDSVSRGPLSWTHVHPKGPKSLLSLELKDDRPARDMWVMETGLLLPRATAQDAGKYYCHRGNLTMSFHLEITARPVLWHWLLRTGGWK
# procedure_text: SPR Biacore, Ab captured on Protein A, CD19-His analyte
assay_metric: pKd
Please keep in mind that pKd is minus log10 of the molar concentration; only the number is needed.

Example entries begin here.
F3.81.2 (antibody, human IgG1, V domains shown, human-murine chimeric antibody, human IgG1 constant) VH: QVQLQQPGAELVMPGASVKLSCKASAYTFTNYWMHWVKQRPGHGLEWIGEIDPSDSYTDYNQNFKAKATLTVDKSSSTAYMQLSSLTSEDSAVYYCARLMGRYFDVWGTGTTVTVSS VL: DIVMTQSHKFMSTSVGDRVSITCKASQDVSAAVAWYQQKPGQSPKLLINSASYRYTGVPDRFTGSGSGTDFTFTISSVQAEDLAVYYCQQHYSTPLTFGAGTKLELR :: 9.12
F5.7.1 (antibody, human IgG1, V domains shown, human-murine chimeric antibody, human IgG1 constant) VH: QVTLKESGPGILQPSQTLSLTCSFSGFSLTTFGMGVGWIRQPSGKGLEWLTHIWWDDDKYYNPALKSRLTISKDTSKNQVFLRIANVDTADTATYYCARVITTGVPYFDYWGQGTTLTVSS VL: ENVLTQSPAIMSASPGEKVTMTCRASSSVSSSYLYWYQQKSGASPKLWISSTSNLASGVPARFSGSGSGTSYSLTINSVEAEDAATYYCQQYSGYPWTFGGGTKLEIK :: 8.93
F3.64.4 (antibody, human IgG1, V domains shown, human-murine chimeric antibody, human IgG1 constant) VH: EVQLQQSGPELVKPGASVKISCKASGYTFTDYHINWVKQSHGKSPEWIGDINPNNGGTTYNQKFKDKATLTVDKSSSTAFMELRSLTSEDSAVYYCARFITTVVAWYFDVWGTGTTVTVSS VL: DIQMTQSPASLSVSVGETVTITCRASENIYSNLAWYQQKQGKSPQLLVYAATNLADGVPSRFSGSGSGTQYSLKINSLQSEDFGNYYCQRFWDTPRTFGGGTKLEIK :: 8.79

Qu. // fetch pKd given entry F3.40.14 (antibody, human IgG1, V domains shown, human-murine chimeric antibody, human IgG1 constant) VH: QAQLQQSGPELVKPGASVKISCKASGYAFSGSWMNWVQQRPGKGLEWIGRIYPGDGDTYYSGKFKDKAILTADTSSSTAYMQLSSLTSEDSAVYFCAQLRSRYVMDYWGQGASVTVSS VL: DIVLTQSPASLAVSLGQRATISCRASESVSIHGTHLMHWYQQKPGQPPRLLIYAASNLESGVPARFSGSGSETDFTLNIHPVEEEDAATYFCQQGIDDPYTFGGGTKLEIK
Ans. 8.77
